Known IC50 of a selection of compounds
Molecular target: Protein farnesyltransferase (Bos taurus, UniProt P29702+P49355)
Assay: Inhibitory activity against Ras Farnesyl Protein transferase from bovine brain
Numbers only; they are read as µM.

A selection of reference data follows.
CC[C@H](C)[C@H](NCCCS)C(=O)N[C@@H](Cc1ccccc1)C(=O)N[C@@H](CCSC)C(=O)O	0.05
CC[C@H](C)[C@H](NC(=O)[C@@H](NC[C@@H](N)CS)C(C)C)C(=O)N[C@@H](CCSC)C(=O)O	0.007
CC[C@H](C)[C@H](NC(=O)[C@@H](NC(=O)[C@@H](N)CS)[C@@H](C)CC)C(=O)N[C@@H](CCO)C(=O)O	0.33
CC[C@H](C)[C@H](NC(=O)[C@@H](NCCCS)C(C)C)C(=O)N[C@@H](CCSC)C(=O)O	0.029
CC[C@H](C)[C@H](NC(=O)[C@@H](N)CS)C(=O)N[C@@H](Cc1ccccc1)C(=O)N[C@@H](CCSC)C(=O)O	0.027
CC[C@H](C)[C@H](NC[C@@H](N)CS)C(=O)N[C@@H](Cc1ccccc1)C(=O)N[C@@H](CCSC)C(=O)O	0.018
CC[C@H](C)[C@H](NC(=O)[C@@H](NC[C@@H](N)CS)C(C)C)C(=O)N[C@@H](CC(C)C)C(=O)O	0.55
CC[C@H](C)[C@H](NC[C@@H](NC[C@@H](N)CS)[C@@H](C)CC)C(=O)N[C@@H](CCO)C(=O)O	0.02

Endpoint output: IC50 of CCC(C)[C@@H](CN[C@@H](Cc1ccccc1)C(=O)N[C@@H](CCSC)C(=O)O)NCCCS (some centres undefined) . Value? 0.4

Endpoint output: IC50 of `CC[C@H](C)[C@H](NC(=O)[C@@H](NC(=O)[C@@H](N)CS)C(C)C)C(=O)N[C@@H](CCSC)C(=O)O` . Value? 0.165

Endpoint output: IC50 of CCC(C)[C@@H](CN[C@@H](Cc1ccccc1)C(=O)N[C@@H](CCSC)C(=O)O)NCC(N)CS (some centres undefined) . Value? 0.0048

Endpoint output: IC50 of `CC[C@H](C)[C@H](NC[C@@H](N)CS)C(=O)N[C@H](C(=O)N[C@@H](CCO)C(=O)O)[C@@H](C)CC` . Value? 0.042

Endpoint output: IC50 of CCC(C)[C@H](NC[C@@H](NC(=O)[C@@H](N)CS)C(C)CC)C(=O)N[C@@H](CCO)C(=O)O (some centres undefined) . Value? 0.15

Endpoint output: IC50 of CCC(C)[C@H](NCC(N)CS)C(=O)N[C@H](CN[C@@H](CCSC)C(=O)O)Cc1ccccc1 (some centres undefined) . Value? 0.14

###

Target: Protein farnesyltransferase (Mus musculus) (UniProt Q61239+Q8K2I1)
Test: Inhibition of v-ras posttranslational processing in NIH3T3 cells at 100 uM
Format: cell-based
Known inhibition of a selection of compounds

Endpoint output: inhibition of `CC[C@H](C)[C@H](NC[C@@H](N)CS)C(=O)N[C@@H](Cc1ccccc1)C(=O)N[C@@H](CCSC)C(=O)O` . Value? 10%

Endpoint output: inhibition of CCC(C)[C@@H](CN[C@@H](Cc1ccccc1)C(=O)N[C@@H](CCSC)C(=O)O)NCC(N)CS (some centres undefined) . Value? 30%

Endpoint output: inhibition of `CC[C@H](C)[C@H](NC[C@@H](N)CS)C(=O)N[C@H](C(=O)N[C@H]1CCOC1=O)[C@@H](C)CC` . Value? 30%

Endpoint output: inhibition of `CC[C@@H](C)[C@H](NC[C@@H](NC[C@@H](N)CS)[C@H](C)CC)C(=O)N[C@H]1CCOC1=O` . Value? > 90%

###

Target: Geranylgeranyl transferase type I (Bos taurus, UniProt P29702+Q5EAD5)
Assay: Inhibitory activity against bovine type-1 geranylgeranyl transferase.
Assay type: protein-complex assay
The threshold is 40 µM. Values of IC50 beneath it are tagged y; values meeting or exceeding it are tagged n.

CC[C@H](C)[C@H](NC(=O)[C@@H](NCCCS)C(C)C)C(=O)N[C@@H](CCSC)C(=O)O	y

Next compound, please.
Below 40 µM on IC50? Entry `CC[C@H](C)[C@H](NC(=O)[C@@H](NC(=O)[C@@H](N)CS)C(C)C)C(=O)N[C@@H](CCSC)C(=O)O` n

###

Known IC50 of a selection of molecules
Target: Geranylgeranyl transferase type I (Bos taurus, UniProt P29702+Q5EAD5)
Assay: In vitro inhibition of bovine type-1 geranylgeranyl transferase
Assay type: protein-complex assay
Numbers only; they are read as µM.

CCC(C)[C@@H](CN[C@@H](Cc1ccccc1)C(=O)N[C@@H](CCSC)C(=O)O)NCC(N)CS (stereo partly drawn)	5.75

As a next step, examine the molecule that follows.
So what IC50 did CCC(C)[C@H](NCC(N)CS)C(=O)N[C@H](CN[C@@H](CCSC)C(=O)O)Cc1ccccc1 (stereo partly drawn) get with Geranylgeranyl transferase type I (Bos taurus, UniProt P29702+Q5EAD5)? 1.1

###

Target: Geranylgeranyl transferase type I (Bos taurus, UniProt P29702+Q5EAD5)
Assay: Inhibitory activity against bovine type-1 geranylgeranyl transferase.
Format: protein-complex assay
Known log10(IC50) of a selection of compounds
Could you please treat all values as log10 of IC50 in µM?

CC[C@H](C)[C@H](NC[C@@H](N)CS)C(=O)N[C@@H](Cc1ccccc1)C(=O)N[C@@H](CCSC)C(=O)O	-0.51
CC[C@H](C)[C@H](NC[C@@H](NC[C@@H](N)CS)[C@@H](C)CC)C(=O)N[C@@H](CCO)C(=O)O	1.65
CC[C@H](C)[C@H](NC(=O)[C@@H](NC[C@@H](N)CS)C(C)C)C(=O)N[C@@H](CCSC)C(=O)O	-1.55

Endpoint output: log10(IC50) of `CC[C@H](C)[C@H](NC(=O)[C@@H](N)CS)C(=O)N[C@@H](Cc1ccccc1)C(=O)N[C@@H](CCSC)C(=O)O` . Value? 2.48

Endpoint output: log10(IC50) of `CC[C@H](C)[C@H](NC[C@@H](N)CS)C(=O)N[C@H](C(=O)N[C@@H](CCO)C(=O)O)[C@@H](C)CC` . Value? 0.90

Taken from ChEMBL document CHEMBL1127813.
